targetEntity: T1, Human VSIG4-L-His (human, UniProt Q9Y279 20-283)
T1 construct: long isoform ECD with His tag; also called hVSIG4-L
T1 sequence: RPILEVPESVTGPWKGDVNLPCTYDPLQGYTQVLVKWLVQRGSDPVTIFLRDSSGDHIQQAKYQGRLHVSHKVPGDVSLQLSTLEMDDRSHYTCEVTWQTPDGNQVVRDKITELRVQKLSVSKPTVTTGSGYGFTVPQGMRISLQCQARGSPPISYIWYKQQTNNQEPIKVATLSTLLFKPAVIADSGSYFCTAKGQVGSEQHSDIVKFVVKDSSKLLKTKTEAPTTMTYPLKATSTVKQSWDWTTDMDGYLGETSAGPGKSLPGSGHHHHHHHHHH
measurementDescription: BLI, IgG on AHC sensor, antigen 100 nM
quantityKind: KD relative to parental chimera (fold)

binder="h14C05.E humanized IgG4 (S228P) kappa (antibody, V domains shown) VH: QVQLVQSGAEVKKPGASVKVSCKASGYTFTNYGMNWVRQAPGQGLEWMGSINTYTGEATYADKFQGRVTMTLDTSTNTAYMELSSLRSEDTAVYYCARGDYYGRGTWFAYWGQGTLVTVSS VL: ETVVTQSPATLSLSPGERATLSCRASQDVSTAVAWYQQKPGQAPRLLIYSASYRYPGIPARFSGSGSGTDFTLTISSLEPEDFAVYYCQQDYSSPWTFGGGTKLEIKR" quantitykind="KD relative to parental chimera" unitlabel=fold recordedvalue=0.5
binder="h14D12.H humanized IgG4 (S228P) kappa (antibody, V domains shown) VH: QIQLVQSGAEVKKPGASVKVSCKASGYTFTNYGMNWVRQAPGQGLEWMGLINTYTGEPTYADKFQGRVTFTLDTSASTAYMELSSLRSEDTAVYFCARERIYGYLHYFDYWGQGTTVTVSS VL: DIQMTQSPSSLSASVGDRVTITCRASQSVDYDGDSYMNWYQQKPGKAPKLLIYAASNLESGVPSRFSGSGSGTDFTLTISSLQPEDFATYYCQQSNEDPRTFGGGTKLEIKR" quantitykind="KD relative to parental chimera" unitlabel=fold recordedvalue=1.1
binder="h14C05.A humanized IgG4 (S228P) kappa (antibody, V domains shown) VH: EVMLVQSGSELKKPGASVKVSCKASGYTFTNYGMNWVRQAPGQGLEWMGSINTYTGEATYADGFTGRFVFSLDTSANTAYLQISSLKAEDTAVYFCARGDYYGRGTWFAYWGQGTLVTVSS VL: ETQVTQSPSSLSASVGDRVTITCRASQDVSTAVAWYQQKPGKAPKLLIYSASYRYPGVPSRFSGSGSGTDFTLTISSLQPEDFATYYCQQDYSSPWTFGGGTKLEIKR" quantitykind="KD relative to parental chimera" unitlabel=fold recordedvalue=0.8
binder="16E10 mouse/human chimeric IgG4 (S228P) kappa (antibody, V domains shown) VH: QVQLQQSGAELVRPGTSVKISCKASGYTFTNYWLGWVKQRPGHGLEWIGDIYPGGGYTNYNEKFKGKATLTADTSSSTAYMQLSSLTSEDSAVYFCAKFYYYGSSYYFDSWGQGTTLTVSS VL: DIVLTQSPSSLSVSAGEKVTLSCKSSQSLLNSGNQENYLAWYQQKPGQPPKLLIYGASTRESGVPDRFTGSGSGTDFTLTISSVQAEDLAVYYCQNDHSYPLTFGAGTKLELKR" quantitykind="KD relative to parental chimera" unitlabel=fold recordedvalue=1
binder="h14C05.B humanized IgG4 (S228P) kappa (antibody, V domains shown) VH: QVQLVQSGSELKKPGASVKVSCKASGYTFTNYGMNWVRQAPGQGLEWMGSINTYTGEATYADGFTGRFVFSLDTSVNTAYLQISSLKAEDTAVYYCARGDYYGRGTWFAYWGQGTLVTVSS VL: ETQVTQSPSSLSASVGDRVTITCRASQDVSTAVAWYQQKPGKAPKLLIYSASYRYPGVPSRFSGSGSGTDFTLTISSLQPEDFATYYCQQDYSSPWTFGGGTKLEIKR" quantitykind="KD relative to parental chimera" unitlabel=fold recordedvalue=0.7
binder="13H11 mouse/human chimeric IgG4 (S228P) kappa (antibody, V domains shown) VH: QIQLVQSGPELKKPGETVKISCKASGYTFENFGMNWVKQAPGKGLKWMGWINTYTGEATYADDFKGRFAFSLETSASTAYLQINNLKNEDTATYFCARDGGFRHFDVWGAGTTVTVSS VL: ETTVTQSPASLSVATGEKVTIRCITSTDIDDDMNWYQQKPGEPPKLLISEGNTLRPGVPSRFSSSGYGTDFVFTIENMLSEDVADYYCLQSDNLPLTFGAGTKLELKR" quantitykind="KD relative to parental chimera" unitlabel=fold recordedvalue=1
binder="h13H11.A humanized IgG4 (S228P) kappa (antibody, V domains shown) VH: QIQLVQSGSELKKPGASVKVSCKASGYTFENFGMNWVRQAPGQGLEWMGWINTYTGEATYADGFTGRFVFSLDTSVSTAYLQISSLKAEDTAVYYCARDGGFRHFDVWGQGTTVTVSS VL: ETQVTQSPSSLSASVGDRVTITCQTSTDIDDDMNWYQQKPGKAPKLLISEGNTLRPGVPSRFSSSGYGTDFTFTISSLQPEDIATYYCLQSDNLPLTFGGGTKLEIKR" quantitykind="KD relative to parental chimera" unitlabel=fold recordedvalue=2.6
binder="h12A12.H humanized IgG4 (S228P) kappa (antibody, V domains shown) VH: QVQLVQSGSELKKPGASVKVSCKASGYTFTNYWMHWVRQAPGQGLEWMGYINPSTGYTDYNQGFTGRFVFSADTSVSTAYLQISSLKAEDTAVYYCIRGSDYYGRDYWGQGTTVTVSS VL: DIQMTQSPSSLSASVGDRVTITCQASQDISNYLNWYQQKPGKAPKLLIYYTSRLHSGVPSRFSGSGSGTDYTFTISSLQPEDIATYYCRQGNTLPWTFGGGTKLEIKR" quantitykind="KD relative to parental chimera" unitlabel=fold recordedvalue=0.8
binder="h13H11.B humanized IgG4 (S228P) kappa (antibody, V domains shown) VH: QIQLVQSGAEVKKPGASVKVSCKASGYTFENFGMNWVRQAPGQRLEWMGWINTYTGEATYADKFQGRVTFTLDTSASTAYMELSSLRSEDTAVYFCARDGGFRHFDVWGQGTTVTVSS VL: ETQVTQSPSSLSASVGDRVTITCQTSTDIDDDMNWYQQKPGKAPKLLISEGNTLRPGVPSRFSSSGYGTDFTFTISSLQPEDIATYYCLQSDNLPLTFGGGTKLEIKR" quantitykind="KD relative to parental chimera" unitlabel=fold recordedvalue=2.5
binder="h16E10.C humanized IgG4 (S228P) kappa (antibody, V domains shown) VH: QVQLVQSGAEVKKPGASVKVSCKASGYTFTNYWLGWVRQAPGQGLEWMGDIYPGGGYTNYNEKFQGRVTMTADTSTSTAYMELSSLRSEDTAVYYCAKFYYYGSSYYFDSWGQGTTVTVSS VL: DIVMTQSPDSLAVSLGERATINCKSSQSLLNSGNQENYLAWYQQKPGQPPKLLIYGASTRESGVPDRFSGSGSGTDFTLTISSLQAEDVAVYYCQNDHSYPLTFGGGTKLEIKR" quantitykind="KD relative to parental chimera" unitlabel=fold recordedvalue=1.7
